- Test system: KM mice
- Test Details: ED50 and LD50 test concerning anesthesia (sequential method) in mice
- Format: in vivo
- Cond: anesthesia (loss of righting reflex), caudal vein injection, 6 mg/ml solution, confirmation test
Each entry below carries its reported Mouse ED50.
Value and unit, in that order.

{"Compound": "CC(C)c1cccc(C(C)C)c1OC(=O)[C@H](F)CCN(C)C.Cl [Compound E2]", "Value": "13.0 mg/kg"}
{"Compound": "CC(C)c1cccc(C(C)C)c1OC(=O)C(F)CC(=O)[O-].[Na+] (stereo not shown) [Compound F7]", "Value": "18.1 mg/kg"}
{"Compound": "CC(C)c1cccc(C(C)C)c1OC(=O)C(F)CCC(=O)[O-].[Na+] (racemic) [Compound F1]", "Value": "16.7 mg/kg"}

Attention now shifts to the item below.
Which Mouse ED50 reading was recorded for the compound CC(C)c1cccc(C(C)C)c1OC(=O)[C@@H](F)CCOP(=O)([O-])[O-].[Na+].[Na+] [Compound G2] ?
22.8 mg/kg

###

- Test system: SD rats
- Test Details: ED50 and LD50 test concerning anesthesia (sequential method) in rats
- Assay type: in vivo
- Cond: caudal vein injection, 3 mg/ml solution
Quick list: Rat LD50 per entry.
Give a bare numeral; the unit mg/kg is implied.

# lookup: Rat LD50 of CC(C)c1cccc(C(C)C)c1OC(=O)C(F)CCC(=O)[O-].[Na+] (racemic)
44.1

###

- Test system: human ovarian cancer SK-OV-3
- Cond: D0, at grouping; 24 mg/kg (paclitaxel 16 mg/kg) D0-4 IV
Quick reference: Tumor volume (D0) of the listed items.
State the answer as a number, implicitly in mm^3.

Consider the following illustrative entries.
{"Molecule": "CC(=O)O[C@H]1C(=O)[C@@]2(C)[C@H]([C@H](OC(=O)c3ccccc3)[C@]3(O)C[C@H](OC(=O)[C@H](O)[C@@H](NC(=O)c4ccccc4)c4ccccc4)C(C)=C1C3(C)C)[C@]1(OC(C)=O)CO[C@@H]1C[C@@H]2O [paclitaxel, reference compound]", "Study System": "human ovarian cancer SK-OV-3", "Uom": "mm^3", "Tumor volume (D0)": 134.6}
{"Molecule": "CCN(C)CC[C@@H](F)C(=O)O[C@@H](C(=O)O[C@H]1C[C@@]2(O)[C@@H](OC(=O)c3ccccc3)[C@@H]3[C@]4(OC(C)=O)CO[C@@H]4C[C@H](O)[C@@]3(C)C(=O)[C@H](OC(C)=O)C(=C1C)C2(C)C)[C@@H](NC(=O)c1ccccc1)c1ccccc1.CS(=O)(=O)O", "Study System": "human ovarian cancer SK-OV-3", "Uom": "mm^3", "Tumor volume (D0)": 133.6}
{"Molecule": "CC(=O)OC1C(=O)C2(C)C(O)CC3OCC3(OC(C)=O)C2C(OC(=O)c2ccccc2)C2(O)CC(OC(=O)C(OC(=O)C(CCN(C)C)C(F)(F)F)C(NC(=O)c3ccccc3)c3ccccc3)C(C)=C1C2(C)C.Cc1ccc(S(=O)(=O)O)cc1 (stereo not drawn)", "Study System": "human ovarian cancer SK-OV-3", "Uom": "mm^3", "Tumor volume (D0)": 134.9}

Dear colleague, I am looking for the recorded Tumor volume (D0) of the following molecule: CCN(CC)CC[C@H](F)C(=O)O[C@@H](C(=O)O[C@H]1C[C@@]2(O)[C@@H](OC(=O)c3ccccc3)[C@@H]3[C@]4(OC(C)=O)CO[C@@H]4C[C@H](O)[C@@]3(C)C(=O)[C@H](OC(C)=O)C(=C1C)C2(C)C)[C@@H](NC(=O)c1ccccc1)c1ccccc1.O=C(O)/C=C/C(=O)O
133.6

Any idea what Tumor volume (D0) was measured for CC(=O)O[C@H]1C(=O)[C@@]2(C)[C@H]([C@H](OC(=O)c3ccccc3)[C@]3(O)C[C@H](OC(=O)[C@H](OC(=O)C(F)CCN(C)C(C)C)[C@@H](NC(=O)c4ccccc4)c4ccccc4)C(C)=C1C3(C)C)[C@]1(OC(C)=O)CO[C@@H]1C[C@@H]2O.Cl (stereo partly drawn) ?
127.9

Reported Tumor volume (D0), molecule CC(=O)OC1C(=O)C2(C)C(O)CC3OCC3(OC(C)=O)C2C(OC(=O)c2ccccc2)C2(O)CC(OC(=O)C(OC(=O)C(CCCCN(C)C)C(F)F)C(NC(=O)c3ccccc3)c3ccccc3)C(C)=C1C2(C)C.O=S(=O)(O)O (stereo not drawn) : ____
133.8

Param item = CC(=O)O[C@H]1C(=O)[C@@]2(C)[C@H]([C@H](OC(=O)c3ccccc3)[C@]3(O)C[C@H](OC(=O)[C@H](OC(=O)[C@H](F)CCCN(C)C)[C@@H](NC(=O)c4ccccc4)c4ccccc4)C(C)=C1C3(C)C)[C@]1(OC(C)=O)CO[C@@H]1C[C@@H]2O.O=C(O)/C=C\C(=O)O ; retrieve measured Tumor volume (D0).
135.8

Tumor volume (D0) for CC(=O)O[C@H]1C(=O)[C@@]2(C)[C@H]([C@H](OC(=O)c3ccccc3)[C@]3(O)C[C@H](OC(=O)[C@H](OC(=O)[C@H](F)CCN(C)C)[C@@H](NC(=O)c4ccccc4)c4ccccc4)C(C)=C1C3(C)C)[C@]1(OC(C)=O)CO[C@@H]1C[C@@H]2O.CS(=O)(=O)O ?
133.6

Any idea what Tumor volume (D0) was measured for CC(=O)O[C@H]1C(=O)[C@@]2(C)[C@H]([C@H](OC(=O)c3ccccc3)[C@]3(O)C[C@H](OC(=O)[C@H](OC(=O)C(CCN(C)C)C(F)F)[C@@H](NC(=O)c4ccccc4)c4ccccc4)C(C)=C1C3(C)C)[C@]1(OC(C)=O)CO[C@@H]1C[C@@H]2O.Cl (stereo partly drawn) ?
133.4

###

- Test Details: In vitro dissociation of the water soluble taxane derivatives in blood plasma of rat
- Assay type: in vitro ADME, SD rats
- Cond: 37° C., 5 min
Endpoint Name: dissociation percent

Examples from the recorded data:
{"Compound": "CC(=O)O[C@@]12CO[C@@H]1C[C@H](O)[C@@]1(C)C(=O)[C@H](O)C3=C(C)[C@@H](OC(=O)[C@H](OC(=O)C(F)CCN(C)C)[C@@H](NC(=O)OC(C)(C)C)c4ccccc4)C[C@@](O)([C@@H](OC(=O)c4ccccc4)[C@H]21)C3(C)C.Cl (stereo partly shown)", "dissociation percent": "91.1%"}
{"Compound": "CC(=O)O[C@H]1C(=O)[C@@]2(C)[C@H]([C@H](OC(=O)c3ccccc3)[C@]3(O)C[C@H](OC(=O)[C@H](OC(=O)C(F)CCN(C)C)[C@@H](NC(=O)c4ccccc4)c4ccccc4)C(C)=C1C3(C)C)[C@]1(OC(C)=O)CO[C@@H]1C[C@@H]2O.CS(=O)(=O)O (stereo partly shown)", "dissociation percent": "96.8%"}
{"Compound": "CO[C@H]1C(=O)[C@]2(C)[C@@H](OC)C[C@H]3OC[C@@]3(OC(C)=O)[C@H]2[C@H](OC(=O)c2ccccc2)[C@]2(O)C[C@H](OC(=O)[C@H](OC(=O)[C@H](F)CCN(C)C)[C@@H](NC(=O)OC(C)(C)C)c3ccccc3)C(C)=C1C2(C)C.CS(=O)(=O)O", "dissociation percent": "88.9%"}

If you can, please state the reported dissociation percent value of CO[C@H]1C(=O)[C@]2(C)[C@@H](OC)C[C@H]3OC[C@@]3(OC(C)=O)[C@H]2[C@H](OC(=O)c2ccccc2)[C@]2(O)C[C@H](OC(=O)[C@H](OC(=O)[C@@H](F)CCN(C)C)[C@@H](NC(=O)OC(C)(C)C)c3ccccc3)C(C)=C1C2(C)C.Cl .
87.6%

###

- System: KM mice
- Test Details: ED50 and LD50 test concerning anesthesia (sequential method) in mice
- Type: in vivo
- Cond: 3 mg/ml solution, confirmation test
Collected TI Mouse values appear next to each entry.
A bare number is all that is needed in reply.

{"Compound": "CC(C)c1cccc(C(C)C)c1O [Propofol, reference compound]", "Study System": "KM mice", "Value": 4.9}
{"Compound": "CC(C)c1cccc(C(C)C)c1OC(=O)C(F)CCC(=O)[O-].[Na+] (racemic)", "Study System": "KM mice", "Value": 2.8}
{"Compound": "CC(C)c1cccc(C(C)C)c1OC(=O)C(F)CC(=O)[O-].[Na+] (centres unmarked)", "Study System": "KM mice", "Value": 2.6}

Look up TI Mouse for this compound: CC(C)c1cccc(C(C)C)c1OC(=O)[C@@H](F)CCOP(=O)([O-])[O-].[Na+].[Na+]
3.0

###

- System: SD rats
- Test Details: ED50 and LD50 test concerning anesthesia (sequential method) in rats
- Format: in vivo
- Cond: 3 mg/ml solution
Endpoint Name: TI Rat
// no unit string in output, number only

Solved entries (count: 3):
{"Compound": "CC(C)c1cccc(C(C)C)c1OC(=O)[C@H](F)CCN(C)C.Cl [Compound E2]", "Value": 3.8}
{"Compound": "CC(C)c1cccc(C(C)C)c1OC(=O)C(F)CCC(=O)[O-].[Na+] (racemic)", "Value": 3.0}
{"Compound": "CC(C)c1cccc(C(C)C)c1OC(=O)C(F)CC(=O)[O-].[Na+] (centres unmarked)", "Value": 3.0}

Please state recorded TI Rat (tested on SD rats) of CC(C)c1cccc(C(C)C)c1O [Propofol, reference compound]
5.5

Param readout= TI Rat; system= SD rats; entry= CC(C)c1cccc(C(C)C)c1OC(=O)[C@@H](F)CCOP(=O)([O-])[O-].[Na+].[Na+] ; returns value.
3.3
